From: paper PMC7059070

Task for the reader: assign each of the following molecules its reported IC50.
tested on: non-malignant CHO-K1 cell line; experiment: Cell viability, sulforhodamine B (SRB) assay, CHO-K1 cells; assay type: cell-based; details: Cricetulus griseus, 48 h treatment, read-out: IC50 (mM) CHO-K1 cells, 48 h
Answers are plain numbers, in mM.

Observe how each entry below is paired with its result.
C=CCSC[C@H](NC(=O)/C=C/c1ccc(OC(C)=O)c(OC(C)=O)c1)C(=O)OCCCC | 9.97
O=c1[nH]cc(F)c(=O)[nH]1 [5-Fluorouracil, 5-fluorouracil, reference compound] | 0.048
C=CCSC[C@H](NC(=O)/C=C/c1ccc(OC(C)=O)c(OC(C)=O)c1)C(=O)OCCC | 1.25
C=CCSC[C@H](NC(=O)/C=C/c1ccc(OC(C)=O)c(OC(C)=O)c1)C(=O)OCCCCC | 1.84
C=CCSC[C@H](N)C(=O)OCCC [3c, Propyl S-prop-2-en-1-ylcysteinate] | 1.24

Then this molecule:
Problem: I am curious: what IC50 value has been reported for `C=CCSC[C@H](NC(=O)/C=C/c1ccc(OC(C)=O)c(OC(C)=O)c1)C(=O)OC` ?
Solution: 7.83
